Tested on: MDA-MB-231 breast
Experiment: NCI-60 one-dose screen, 48 h
Details: 10 µM unless noted
Experimental: Cells are grown in 96 well plates and exposed to the test compound for 48 hours. Compounds are tested at a single concentration, which is 10^-5 M for most compounds. The reported endpoint is percent growth (GI% or GIPRCNT), where numbers from 0 - 100% represent growth inhibition, and numbers from -100% - 0 represent cell death. For example, a value of 40 represents 60% growth inhibition. A value of 0 means no net growth occurred over the course of the experiment. […]
About 83,000 compounds went through this panel and 20% of them were active in at least one assay; those are over-represented in the sample as a whole. Calls of active or inactive are those of the source. The calls were made as follows: active = growth percent below 10; inactive = the rest.
Your answer must be one of the following: 1 (yes) (active), 0 (no) (inactive)

Inquiry: I would be grateful if you could indicate the recorded call for N#CC1C=CN(CC(N)=O)c2ccc3cccnc3c21 (stereo unspecified) .
Reply text: 0 (no)

Inquiry: Same thing, different molecule: C/C(=N/O)c1ccc(F)cc1
Reply text: 0 (no)

Inquiry: Could you do the same for CCCCN[C@H]1CC[C@@]2(C)[C@@H](CC[C@@]3(C)[C@H]2[C@H](O)C[C@H]2/C(=C(\CCC=C(C)C)C(=O)OC)[C@@H](OC(C)=O)C[C@@]23C)[C@@H]1C , please?
Reply text: 0 (no)

Inquiry: Field entry: C[C@@H]1CCC[C@H]1CC(N)C(=O)O (stereo partly specified)
Reply text: 0 (no)

Inquiry: And the next one, CCN(C(=O)N1CCN(c2cc3c(cc2F)c(=O)c(C(=O)O)cn3C2CC2)CC1)c1nc(-c2ccc(Cl)cc2)cs1 ?
Reply text: 1 (yes)

Inquiry: Param item: Fc1ccc(Nc2nc3nonc3nc2Nc2ccc(I)cc2)cc1
Reply text: 1 (yes)

====

Tested on: OVCAR-4 ovarian
Assay: NCI-60 one-dose screen, 48 h
Details: 10 µM unless noted
This is part of a sample that, as a whole, favours compounds with a hit. Of some 83,000 tested, about 20% had one in any assay. Active and inactive are the calls of the source. The calls were made as follows: active = growth percent below 10; inactive = the rest.
Returns: one label drawn from Y = active, N = inactive

Inquiry: # fetch the recorded call for O=C1c2cccnc2C(=O)c2c1c(C(=O)NCCn1ccnc1)c1ccccn21 here
Reply text: Y

Inquiry: Also CS(=O)(=O)C1=CN(CCO)C(=O)N2CCCN=C12 , if possible.
Reply text: N

Inquiry: Proceed to Cc1noc(C)c1C(=O)OCc1coc2ccccc2c1=O
Reply text: N

Inquiry: Also need COC(C(=O)[C@@H](O)[C@@H](C)O)[C@@H]1Cc2cc3cc(O[C@H]4C[C@@H](O[C@H]5C[C@@H](O)[C@H](O)C(C)O5)[C@H](O)C(C)O4)c(C)c(O)c3c(O)c2C(=O)[C@H]1O[C@H]1C[C@@H](O[C@H]2C[C@@H](O[C@H]3C[C@@H](O)[C@H](OC)C(C)O3)[C@@H](O)C(C)O2)[C@H](O)C(C)O1 (some centres undefined) , thanks.
Reply text: N

Inquiry: Then what about the molecule C1=C(N2CCCC2)CCC1 ?
Reply text: N

Inquiry: Next molecule: COc1cc(-c2nc(SCCC(C)C)nc(Nc3ccccc3Cl)c2C#N)cc(OC)c1OC
Reply text: N

Inquiry: Can you check OCCOCCN(Cc1ccccn1)Cc1cc(I)cc(I)c1O next?
Reply text: N

Inquiry: // query: Cc1ccc(Cc2cnc(NC(=O)c3cc(Br)cs3)s2)cc1
Reply text: N

Inquiry: Would you mind doing O=C(CSc1nc2ccc([N+](=O)[O-])cc2[nH]1)Nc1ccc(F)cc1 as well?
Reply text: N

====

Test system: NCI-H460 lung
Assay: NCI-60 one-dose screen, 48 h
Settings: 10 µM unless noted
The panel holds about 83,000 compounds, 20% with a hit somewhere; the sample as a whole holds those more often. Active and inactive are the calls of the source. The calls were made as follows: active = growth percent below 10; inactive = the rest.
API: response.call in active, inactive

Inquiry: Per the records of this test, what outcome belongs to Cn1ccc2c3c(ccc21)CC3=O ?
Reply text: inactive

Inquiry: Consider next the compound CCSc1nc(NC)c2cc(-c3ccc(C(F)(F)F)cc3)ccc2n1 in the same way.
Reply text: inactive

Inquiry: What do you get for O=C1/C(=C/c2ccccc2Br)COc2ccc(O)c(O)c21 ?
Reply text: inactive

Inquiry: // same read-out, input: COc1ccc(C(=O)Nc2ncc(Cc3ccc(F)cc3)s2)cc1
Reply text: active

Inquiry: Entry O=C1NC(=O)c2c1c1c3ccccc3ccc1c1[nH]c3ccc(Br)cc3c21 please
Reply text: active

Inquiry: Query C=C(C)[C@@H]1CC[C@]2(C(=O)OC)CC[C@]3(C)[C@H](CC[C@@H]4[C@@]5(C)C/C(=C/NC(N)=S)C(=O)C(C)(C)[C@@H]5CC[C@]43C)[C@@H]12 next
Reply text: inactive

Inquiry: Repeat with Cn1c(=O)c2[nH]c(N/N=C/c3ccccc3Br)nc2n(C)c1=O
Reply text: inactive

Inquiry: Do the same for COc1cc(CNS(=O)(=O)c2ccc(C)cc2)ccc1OCc1cn(-c2ccc(Br)cc2)nn1 please
Reply text: inactive

Inquiry: Here is the next compound: O=C(Cn1c2c(c3ccccc31)CCCC2)Nc1ccc(-c2nc3ccccc3s2)cc1
Reply text: inactive

Inquiry: Likewise for CC(C)(C)[Si](C)(C)O[C@H]1C(=O)C=CN2CC=C[C@@H]12 ?
Reply text: inactive

====

Tested on: NCI-H23 lung
Assay: NCI-60 one-dose screen, 48 h (100 = growth as untreated, 0 = no growth, -100 = all killed)
Details: 10 µM unless noted
This is part of a sample that, as a whole, favours compounds with a hit. Of some 83,000 tested, about 20% had one in any assay.
Give measured growth for each item. Keep answers brief.
Value expressed in %; do not type the unit.

Inquiry: Given O=S(=O)(Nc1ccc(Cl)cc1)c1ccc(-c2cnc(C3CC3)o2)cc1 , state its recorded growth.
Reply text: 34.5

Inquiry: Could you do the same for COc1ccc(OC)c(-c2c(C#N)c(-c3cccs3)nc3c2c(-c2ccccc2)nn3-c2ccccc2)c1 , please?
Reply text: 105

Inquiry: Repeat with CCn1c(=S)sc2c(Nc3ccc(F)cc3)nc(-c3cccnc3)nc21
Reply text: 66.2

Inquiry: Please answer likewise for Cc1nc2ncnc(Cl)c2[nH]1
Reply text: 95.3

Inquiry: Same question for CCN(CC)CCCN1C(=O)c2c(c(C)c3c(oc4cc(O)ccc43)c2C)C1=O please.
Reply text: 104

====

Test system: K-562 leukemia
Assay: NCI-60 one-dose screen, 48 h
Conditions: 10 µM unless noted
Description: Cells are grown in 96 well plates and exposed to the test compound for 48 hours. Compounds are tested at a single concentration, which is 10^-5 M for most compounds. The reported endpoint is percent growth (GI% or GIPRCNT), where numbers from 0 - 100% represent growth inhibition, and numbers from -100% - 0 represent cell death. For example, a value of 40 represents 60% growth inhibition. A value of 0 means no net growth occurred over the course of the experiment. […]
About 83,000 compounds went through this panel and 20% of them were active in at least one assay; those are over-represented in the sample as a whole. Activity calls are given as the source filed them. The calls were made as follows: active = growth percent below 10; inactive = the rest.
Reply using exactly one outcome from active, inactive

Inquiry: Assay result, entry COc1ccc(C(=O)Nc2ncc(Cc3cccc(Cl)c3)s2)cc1OC — outcome?
Reply text: inactive

Inquiry: Likewise for C#CCn1cnc2c(Nc3cccc(NC(=O)C=C)c3)ncnc21 ?
Reply text: inactive

Inquiry: Next compound up: C=C(CNCCc1ccc(O)cc1)[C@@H]1CC[C@]2(CO)CC[C@]3(C)[C@H](CC[C@@H]4[C@@]5(C)CCC(NCCO)C(C)(C)[C@@H]5CC[C@]43C)[C@@H]12 (stereo not given in full)
Reply text: active

Inquiry: What do you get for c1cnc2[nH]cc(-c3csc(-c4cn(CCCN5CCOCC5)c5ccccc45)n3)c2c1 ?
Reply text: active

Inquiry: Now consider Cc1nnc(NC(=O)c2nc(S(=O)(=O)Cc3ccc(F)cc3)ncc2Cl)s1 .
Reply text: active

Inquiry: Okay, and N#Cc1cnc(NCCc2ccncc2)nc1-n1cnc2ccccc21 ?
Reply text: inactive

Inquiry: Another compound: C[C@@H]1CCC[C@H]1CC(N)C(=O)O (stereo not given in full)
Reply text: inactive

Inquiry: And the next one, Cn1cc(-c2csc(-c3ccc(Cl)cc3)n2)c2cccnc21 ?
Reply text: active

Inquiry: Entry to check: COc1ccc(NC(=O)c2sc3nc(C)c(C(=O)/C=C/c4cccc(OC)c4)cc3c2N)cc1
Reply text: inactive

Inquiry: Item: Clc1ccc2c(c1)N(c1ncnc3ccc(-c4cnc5[nH]ncc5c4)cc13)CC2
Reply text: inactive

====

Tested on: MDA-MB-435 melanoma
Assay: NCI-60 one-dose screen, 48 h
Conditions: 10 µM unless noted
Protocol: Growth inhibition of the MDA-MB-435 human Melanoma tumor cell line is measured as a screen for anti-cancer activity. Cells are grown in 96 well plates and exposed to the test compound for 48 hours. Compounds are tested at a single concentration, which is 10^-5 M for most compounds. The reported endpoint is percent growth (GI% or GIPRCNT), where numbers from 0 - 100% represent growth inhibition, and numbers from -100% - 0 represent cell death. […]
Compounds without any hit were thinned out: in the full panel of roughly 83,000, 20% have a hit. Active and inactive are the calls of the source. Rule for the calls: active = growth percent below 10; inactive = the rest.
Output constraint: value belongs to active, inactive

Inquiry: GET /call?item= Cc1ccc(-c2nc(/C=C3/C(=O)Nc4ccccc43)c3ccccn23)cc1 returns the recorded outcome of this test.
Reply text: inactive

Inquiry: Please give the result for O=C(Cn1c2c(c3ccccc31)CCCC2)Nc1ccc(-c2nc3ccccc3s2)cc1 too.
Reply text: inactive

Inquiry: Let us now turn to O=C1/C(=C/c2ccc(-c3ccc(Br)cc3)o2)SC(=S)N1CCc1ccc(O)cc1
Reply text: inactive

Inquiry: Next compound up: N#C/C(=C/c1ccc([N+](=O)[O-])cc1)n1nnc2cc(F)c(F)cc21
Reply text: inactive

Inquiry: How about CCS/C(Nc1ccccc1)=C(\C#N)C(=O)N/N=C/c1ccc(Cl)cc1Cl ?
Reply text: active

Inquiry: Ok, now Cc1nc2sc(C(=O)Nc3ccccc3)c(N)c2cc1C(=O)c1ccccc1
Reply text: active

Inquiry: Next compound up: Oc1c(Cl)cc(Cl)c2ccc(Cn3cc(-c4cc(C(F)(F)F)cc(C(F)(F)F)c4)nn3)nc12
Reply text: inactive

Inquiry: Record: CN(C)CCCC1(c2ccc(F)cc2)OCc2cc(-c3cccc4[nH]ccc34)ccc21 (centres undefined)
Reply text: active

Inquiry: # iterate: O=C(NCCCN1CCOCC1)c1cccc(N2C(=O)/C(=C/c3ccc(F)cc3)SC2=S)c1
Reply text: inactive

Inquiry: Ok, now COc1cc(-c2csc(NC(=O)c3cc(-n4cnc(C)c4)cc(C(F)(F)F)c3)n2)cc(OC)c1OC
Reply text: inactive

Inquiry: Likewise for O=C(Cn1c(=O)sc2nc3ccccc3nc21)Nc1ncc(Cc2cccc(Cl)c2Cl)s1 ?
Reply text: inactive

Inquiry: Next entry: COc1ccc(-c2nnc3n(C)c(=O)c4ccccc4n23)cc1N
Reply text: active

Inquiry: Record: CCOC(=O)c1c(C)c2c(n1C)CSc1cc(C(=O)c3ccccc3)c(=O)[nH]c1-2
Reply text: inactive

Inquiry: Next: COP(=O)(OC)C(C)(C)CC(=O)CC(C#N)(C#N)C(C#N)C#N
Reply text: inactive

Inquiry: Record: Nc1ncnc2c1N=C(c1ccc3c(c1)OCO3)CC(c1cccc(Nc3ccnc4cc(Cl)ccc34)c1)N2 (centres undefined)
Reply text: inactive

Inquiry: Quick one: CC(=O)[C@@H]1CCC=C2CC[C@]3(C)[C@@H](CC[C@@H]4[C@@]5(C)CCCNC(C)(C)[C@@H]5CC[C@]43C)[C@H]21
Reply text: active

Inquiry: Cool, now Cc1ccc(CNc2ccc(Cl)cc2NCc2ccc(C)c(O)c2)cc1O
Reply text: inactive

Inquiry: Next up: CC1=NN(c2nc(SCC(=O)Nc3nc4ccc(C)cc4s3)nc(-c3ccccc3)c2C#N)C(=O)C1
Reply text: inactive

Inquiry: Lookup O=C(/C=C/c1ccccc1)c1cccc(OCCCOc2cccc(C(=O)/C=C/c3ccccc3)c2)c1
Reply text: inactive
